Reference source: patent US7041785B1

# experimentalTarget: angiotensin-converting enzyme (ACE) from rabbit lungs (Oryctolagus cuniculus)
# assayName: Metabolic degradation by purified angiotensin-converting enzyme, HPLC analysis
# Format: in vitro ADME
# Design: purified angiotensin-converting enzyme (ACE) from rabbit lungs; purchased Sigma, St-Louis, Mo; host or cells: purified from rabbit lungs
# Procedure: The metabolic stability of various kinin-related peptides was evaluated by incubating the peptide in the presence of purified angiotensin-converting enzyme (ACE) from rabbit lungs (purchased from Sigma, St-Louis, Mo.) dissolved in phosphate buffered saline (PBS) (50 mmol/L, pH 7.5 containing 300 mmoL/L NaCl); the final concentration of enzyme was 45 μg/mL. The experimental protocol for the measurement of ACE activity has been described elsewhere^15,16. […]
Non-standard residues stand in square brackets, D forms with d. Residues, ends and D or L forms follow the SMILES beside them. Tyr(3,5-I2) = N[C@@H](Cc1cc(I)c(O)c(I)c1)C(=O)O; d2Nal = N[C@H](Cc1ccc2ccccc2c1)C(=O)O; Ahx = NCCCCCC(=O)O; Sar = CNCC(=O)O
assayEndpoint: Less susceptible to ACE proteolytic degradation, relative to Lys(Leu8)desArgBK

What value of Less susceptible to ACE proteolytic degradation, relative to Lys(Leu8)desArgBK has been recorded for this entry: CC(=O)N[C@@H](CCCCN)C(=O)N[C@@H](CCCNC(=N)N)C(=O)N1CCC[C@H]1C(=O)N1CCC[C@H]1C(=O)NCC(=O)N[C@@H](Cc1ccccc1)C(=O)N[C@@H](CO)C(=O)N[C@H](Cc1ccc2ccccc2c1)C(=O)N[C@@H](CC(C)C)C(=O)O [Compound 18, AcLys(D-βNal^7, Leu^8)desArg^9BK] (Ac-KRPPGFS[d2Nal]L-OH; C-terminus assumed)
2-5 times

Let us now turn to CC[C@H](C)[C@H](NC(=O)[C@@H](Cc1ccc2ccccc2c1)NC(=O)[C@H](CO)NC(=O)[C@H](Cc1ccccc1)NC(=O)CNC(=O)[C@@H]1CCCN1C(=O)[C@@H]1CCCN1C(=O)[C@H](CCCNC(=N)N)NC(=O)[C@H](N)CCCCN)C(=O)O [Compound 25, D-Lys(D-βNal^7, Ile^8)desArg^9BK] (H-[dK]RPPGFS[d2Nal]I-OH; N-terminus and C-terminus assumed)
2-5 times

Okay, and CC[C@H](C)[C@H](NC(=O)[C@@H](Cc1ccc2ccccc2c1)NC(=O)[C@H](CO)NC(=O)[C@H](Cc1ccccc1)NC(=O)CNC(=O)[C@@H]1CCCN1C(=O)[C@@H]1CCCN1C(=O)[C@H](CCCNC(=N)N)NC(=O)[C@H](CCCCN)NC(=O)CCCCCNC(=O)[C@H](Cc1cc(I)c(O)c(I)c1)NC(=O)CNC)C(=O)O [Compound 30] (H-[Sar][Tyr(3,5-I2)][Ahx]KRPPGFS[d2Nal]I-OH; N-terminus and C-terminus assumed) ?
2-5 times

###

# experimentalTarget: human B2 receptor (Homo sapiens, UniProt P30411)
# Construct: Helical strips of HUV were prepared according to Gobeil et al; from tissue; host or cells: human umbilical vein helical strips
# Sequence (P30411 whole entry): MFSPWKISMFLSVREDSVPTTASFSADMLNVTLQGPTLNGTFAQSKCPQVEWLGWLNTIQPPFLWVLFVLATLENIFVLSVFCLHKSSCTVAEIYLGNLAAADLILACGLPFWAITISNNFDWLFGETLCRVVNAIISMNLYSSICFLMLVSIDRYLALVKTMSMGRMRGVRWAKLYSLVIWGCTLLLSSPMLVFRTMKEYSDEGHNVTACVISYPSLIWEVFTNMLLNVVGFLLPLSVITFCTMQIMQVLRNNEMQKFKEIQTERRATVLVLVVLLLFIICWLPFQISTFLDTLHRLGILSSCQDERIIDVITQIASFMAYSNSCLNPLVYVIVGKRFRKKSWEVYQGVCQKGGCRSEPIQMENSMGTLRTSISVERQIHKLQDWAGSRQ
# assayName: Human umbilical vein bioassay in presence of Lys(Leu8)desArg9BK, B2 receptor
# Type: cell-based
# conditionParameters: vs BK, Lys(Leu8)desArg9BK 1 μmol/L present
Non-standard residues stand in square brackets, D forms with d. Residues, ends and D or L forms follow the SMILES beside them. d2Nal = N[C@H](Cc1ccc2ccccc2c1)C(=O)O; Tic = O=C(O)[C@@H]1Cc2ccccc2CN1; Sar = CNCC(=O)O
assayEndpoint: Human umbilical vein B2 receptor pA2

Which measured Human umbilical vein B2 receptor pA2 belongs to CC[C@H](C)[C@H](NC(=O)[C@@H](Cc1ccc2ccccc2c1)NC(=O)[C@H](CO)NC(=O)[C@H](Cc1ccccc1)NC(=O)CNC(=O)[C@@H]1CCCN1C(=O)[C@@H]1CCCN1C(=O)[C@H](CCCNC(=N)N)NC(=O)CNC)C(=O)O [Compound 26, Sar(D-βNal^7, Ile^8)desArg^9BK] (H-[Sar]RPPGFS[d2Nal]I-OH; N-terminus and C-terminus assumed) , tested on human B2 receptor (Homo sapiens, UniProt P30411)?
Inactive

Also need CC[C@H](C)[C@H](NC(=O)[C@@H]1Cc2ccccc2CN1C(=O)[C@H](CO)NC(=O)[C@H](Cc1ccccc1)NC(=O)CNC(=O)[C@@H]1CCCN1C(=O)[C@@H]1CCCN1C(=O)[C@H](CCCNC(=N)N)NC(=O)[C@H](N)CCCNC(=N)N)C(=O)O [Compound 14, D-Arg(L-Tic^7, Ile^8)desArg^9BK] (H-[dR]RPPGFS[Tic]I-OH; N-terminus and C-terminus assumed) , thanks.
Inactive

Consider next the compound CC(C)C[C@H](NC(=O)[C@@H](Cc1ccc2ccccc2c1)NC(=O)[C@H](CO)NC(=O)[C@H](Cc1ccccc1)NC(=O)CNC(=O)[C@@H]1CCCN1C(=O)[C@@H]1CCCN1C(=O)[C@H](CCCNC(=N)N)NC(=O)[C@H](N)CCCNC(=N)N)C(=O)O [Compound 24, D-Arg(D-βNal^7, Leu^8)desArg^9BK] (H-[dR]RPPGFS[d2Nal]L-OH; N-terminus and C-terminus assumed) in the same way.
Inactive

###

# experimentalTarget: angiotensin-converting enzyme (ACE) from rabbit lungs (Oryctolagus cuniculus, UniProt P12822)
# Sequence (P12822 34-1310): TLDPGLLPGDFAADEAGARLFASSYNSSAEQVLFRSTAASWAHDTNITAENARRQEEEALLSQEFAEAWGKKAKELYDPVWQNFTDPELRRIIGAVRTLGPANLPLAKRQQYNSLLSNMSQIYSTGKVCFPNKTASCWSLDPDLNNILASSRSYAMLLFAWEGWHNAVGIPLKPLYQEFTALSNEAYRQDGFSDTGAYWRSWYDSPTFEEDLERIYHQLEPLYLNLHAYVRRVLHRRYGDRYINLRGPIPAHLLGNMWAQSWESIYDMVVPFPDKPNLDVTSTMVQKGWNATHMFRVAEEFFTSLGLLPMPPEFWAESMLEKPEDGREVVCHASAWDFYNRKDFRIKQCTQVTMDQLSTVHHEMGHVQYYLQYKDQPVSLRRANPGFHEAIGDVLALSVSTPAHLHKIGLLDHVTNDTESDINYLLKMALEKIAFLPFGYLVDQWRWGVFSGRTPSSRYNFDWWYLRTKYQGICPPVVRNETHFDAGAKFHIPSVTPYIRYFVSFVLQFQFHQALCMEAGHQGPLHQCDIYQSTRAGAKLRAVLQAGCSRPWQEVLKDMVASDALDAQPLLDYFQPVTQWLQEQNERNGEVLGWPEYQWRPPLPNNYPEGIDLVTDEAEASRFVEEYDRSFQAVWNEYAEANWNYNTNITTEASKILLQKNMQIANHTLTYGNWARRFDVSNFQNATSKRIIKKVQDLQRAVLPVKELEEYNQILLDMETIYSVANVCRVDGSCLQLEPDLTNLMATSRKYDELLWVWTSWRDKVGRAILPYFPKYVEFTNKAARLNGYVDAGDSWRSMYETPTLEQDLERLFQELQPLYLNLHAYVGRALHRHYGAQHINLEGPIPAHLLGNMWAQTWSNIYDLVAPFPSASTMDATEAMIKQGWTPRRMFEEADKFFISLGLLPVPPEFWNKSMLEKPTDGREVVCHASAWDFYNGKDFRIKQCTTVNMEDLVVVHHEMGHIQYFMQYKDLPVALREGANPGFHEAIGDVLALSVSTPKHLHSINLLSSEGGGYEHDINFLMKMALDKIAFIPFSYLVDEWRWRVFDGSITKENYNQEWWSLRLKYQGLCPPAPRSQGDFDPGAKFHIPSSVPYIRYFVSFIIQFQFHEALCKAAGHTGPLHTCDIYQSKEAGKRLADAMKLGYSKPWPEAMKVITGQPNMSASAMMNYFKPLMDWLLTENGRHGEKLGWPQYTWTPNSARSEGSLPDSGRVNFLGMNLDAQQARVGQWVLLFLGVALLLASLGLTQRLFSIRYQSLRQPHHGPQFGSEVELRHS
# assayName: Metabolic degradation by purified angiotensin-converting enzyme, HPLC analysis
# Format: in vitro ADME
# Set-up: purified angiotensin-converting enzyme (ACE) from rabbit lungs; purchased Sigma, St-Louis, Mo; host or cells: purified from rabbit lungs
Non-standard residues stand in square brackets, D forms with d. Residues, ends and D or L forms follow the SMILES beside them. d2Nal = N[C@H](Cc1ccc2ccccc2c1)C(=O)O; Ahx = NCCCCCC(=O)O; Sar = CNCC(=O)O
assayEndpoint: Less susceptible to ACE proteolytic degradation, relative to Lys(Leu8)desArgBK

Tell me the measured Less susceptible to ACE proteolytic degradation, relative to Lys(Leu8)desArgBK of CC[C@H](C)[C@H](NC(=O)[C@@H](Cc1ccc2ccccc2c1)NC(=O)[C@H](CO)NC(=O)[C@H](Cc1ccccc1)NC(=O)CNC(=O)[C@@H]1CCCN1C(=O)[C@@H]1CCCN1C(=O)[C@H](CCCNC(=N)N)NC(=O)[C@H](CCCCN)NC(=O)CCCCCNC(=O)[C@H](Cc1ccc(O)cc1)NC(=O)CNC)C(=O)O [Compound 29, SarTyrεAhxLys(D-βNal^7, Ile^8)desArg^9BK] (H-[Sar]Y[Ahx]KRPPGFS[d2Nal]I-OH; N-terminus and C-terminus assumed) , please.
2-5 times
